Would you kindly list GI50 for each of these molecules?

[in] Form field - read-out: GI50; system: U251 CNS; submitted item: "CCCCCc1ccc(S(=O)(=O)N(C(C)=O)c2cc(-c3csc(N(C)C(C)=O)n3)ccc2N2CCN(C)CC2)cc1"
[out] 7.12 µM

[in] Form field - read-out: GI50; system: U251 CNS; submitted item: "CC(=O)N1CCN(Cc2ccc3c(NNC(=O)c4cnccn4)nc4cc(F)ccc4n23)CC1"
[out] 0.505 µM

[in] Form field - read-out: GI50; system: U251 CNS; submitted item: "CCCCSc1nc(Nc2ccc(/C(C)=N/NC(N)=S)cc2)c(C#N)c(-c2ccc(OC)cc2)n1"
[out] 6.88 µM

[in] Form field - read-out: GI50; system: U251 CNS; submitted item: "COc1ccc2c(c1)c(-c1cc(N)n3nc(-c4c[nH]c5ccccc45)cc3n1)cn2C"
[out] 1.64 µM
